- System: Candida albicans
- Procedure Text: Percent inhibition of transport of (Leu)2 into Candida albicans H-317
- Type: functional
- Design: concentration or dose not given beside the values
Experimental Readout: Inhibition (%)
Expressed in %, but write only the number.

The following compounds have reported results that may help.
CCCCCCCCCCCCCCC(N)C(=O)NC(C(=O)O)[C@H]1O[C@@H](n2ccc(=O)[nH]c2=O)[C@H](O)[C@@H]1O (stereo in doubt; 5b) ... 83
CCCCCCC(N)C(=O)NC(C(=O)O)[C@H]1O[C@@H](n2ccc(=O)[nH]c2=O)[C@H](O)[C@@H]1O (stereo in doubt; 3a) ... 71
CCCCCCCCCCC(N)C(=O)NC(C(=O)O)[C@H]1O[C@@H](n2ccc(=O)[nH]c2=O)[C@H](O)[C@@H]1O (stereo partly specified) ... 87
CCCCCCCCCCCCCCC(N)C(=O)NC(C(=O)O)[C@H]1O[C@@H](n2ccc(=O)[nH]c2=O)[C@H](O)[C@@H]1O (stereo in doubt; 5a) ... 56
CCCCCCC(N)C(=O)NC(C(=O)O)[C@H]1O[C@@H](n2ccc(=O)[nH]c2=O)[C@H](O)[C@@H]1O (stereo in doubt; 3b) ... 14

Next:
I am curious: what Inhibition value has been reported for NC(=O)OCC(O)C(O)C(N)C(=O)NC(C(=O)O)[C@H]1O[C@@H](n2cc(C(=O)O)c(=O)[nH]c2=O)[C@H](O)[C@@H]1O (stereo partly specified) ?
5

---

- Test system: Candida albicans
- Procedure Text: Minimum inhibitory concentration against the growth of Candida albicans 124 NIK strain
- Assay type: functional
- Measurement Conditions: Candida albicans; read-out: MIC
Experimental Readout: MIC (µg/mL)
Answer with a number only, understood to be in µg/mL.

Take a look at these entries with their results.
CCCCCCC(N)C(=O)NC(C(=O)O)[C@H]1O[C@@H](n2ccc(=O)[nH]c2=O)[C@H](O)[C@@H]1O (stereo in doubt; 3a) ... 640
NC(=O)OCC(O)C(O)C(N)C(=O)NC(C(=O)O)[C@H]1O[C@@H](n2cc(C(=O)O)c(=O)[nH]c2=O)[C@H](O)[C@@H]1O (stereo not given in full) ... 320

Okay, next one:
Would you mind telling me what MIC value was observed for CCCCCCCCCCC(N)C(=O)NC(C(=O)O)[C@H]1O[C@@H](n2ccc(=O)[nH]c2=O)[C@H](O)[C@@H]1O (stereo not given in full) ?
80

---

- System: Candida albicans
- Procedure Text: Minimum inhibitory concentration against the growth of Candida albicans H-317 strain
- Format: functional
- Measurement Conditions: Candida albicans; read-out: MIC
Experimental Readout: MIC

NC(=O)OCC(O)C(O)C(N)C(=O)NC(C(=O)O)[C@H]1O[C@@H](n2cc(C(=O)O)c(=O)[nH]c2=O)[C@H](O)[C@@H]1O (stereo not given in full) ... 640 µg/mL
CCCCCCC(N)C(=O)NC(C(=O)O)[C@H]1O[C@@H](n2ccc(=O)[nH]c2=O)[C@H](O)[C@@H]1O (stereo in doubt; 3a) ... 160 µg/mL
NC(C(=O)O)[C@H]1O[C@@H](n2ccc(=O)[nH]c2=O)[C@H](O)[C@@H]1O (stereo not given in full) ... > 640 µg/mL
CCCCCCCCCCC(N)C(=O)NC(C(=O)O)[C@H]1O[C@@H](n2ccc(=O)[nH]c2=O)[C@H](O)[C@@H]1O (stereo not given in full) ... 80 µg/mL

Let's switch to this compound now.
For the compound shown here, CCCCCCCCCCCCCCC(N)C(=O)NC(C(=O)O)[C@H]1O[C@@H](n2ccc(=O)[nH]c2=O)[C@H](O)[C@@H]1O (stereo in doubt; 5b) , give the reported MIC.
> 320 µg/mL

---

- System Under Test: Chitin synthase 1 (Candida albicans)
- Procedure Text: Concentration at which chitin synthetase is inhibited by 50%
A collection of compounds and their measured ID50
Answer format: numeric, µg/mL implied, no suffix.

CCCCCCCCCCCCCCC(N)C(=O)NC(C(=O)O)[C@H]1O[C@@H](n2ccc(=O)[nH]c2=O)[C@H](O)[C@@H]1O (stereo in doubt; 5b) ... 10

Quick check: ID50 on Chitin synthase 1 (Candida albicans), item NC(=O)OCC(O)C(O)C(N)C(=O)NC(C(=O)O)[C@H]1O[C@@H](n2cc(C(=O)O)c(=O)[nH]c2=O)[C@H](O)[C@@H]1O (stereo partly drawn) ?
2

---

Known ID50 of a selection of molecules
- System Under Test: Chitin synthase 1 (Candida albicans) (UniProt P23316)
- Sequence (P23316 whole entry, looked up): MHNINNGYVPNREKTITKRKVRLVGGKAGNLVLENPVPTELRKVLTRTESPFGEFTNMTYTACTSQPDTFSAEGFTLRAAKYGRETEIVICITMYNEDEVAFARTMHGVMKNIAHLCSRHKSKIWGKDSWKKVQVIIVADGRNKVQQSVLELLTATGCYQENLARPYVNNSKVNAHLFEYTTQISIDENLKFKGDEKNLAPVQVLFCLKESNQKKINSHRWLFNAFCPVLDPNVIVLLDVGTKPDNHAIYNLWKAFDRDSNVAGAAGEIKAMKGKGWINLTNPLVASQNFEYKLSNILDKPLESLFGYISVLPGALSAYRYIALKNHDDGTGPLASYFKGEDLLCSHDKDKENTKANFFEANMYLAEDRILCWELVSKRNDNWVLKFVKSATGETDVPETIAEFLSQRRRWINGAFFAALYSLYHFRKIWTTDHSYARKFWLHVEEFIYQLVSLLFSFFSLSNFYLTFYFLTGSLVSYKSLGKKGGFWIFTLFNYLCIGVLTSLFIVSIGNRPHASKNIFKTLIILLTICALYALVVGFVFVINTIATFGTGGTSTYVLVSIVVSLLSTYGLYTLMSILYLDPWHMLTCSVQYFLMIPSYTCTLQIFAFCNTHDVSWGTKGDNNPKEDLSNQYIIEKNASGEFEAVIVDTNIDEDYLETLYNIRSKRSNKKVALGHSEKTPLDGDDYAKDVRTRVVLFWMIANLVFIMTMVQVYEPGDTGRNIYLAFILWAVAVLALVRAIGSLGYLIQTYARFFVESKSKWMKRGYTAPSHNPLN
- Procedure Text: Concentration at which chitin synthetase is inhibited by 50%
Write the value in µg/mL as a bare number.

CCCCCCCCCCC(N)C(=O)NC(C(=O)O)[C@H]1O[C@@H](n2ccc(=O)[nH]c2=O)[C@H](O)[C@@H]1O (stereo partly drawn) ... 0.3

Now examine the next entry.
Form: Entry = CCCCCCC(N)C(=O)NC(C(=O)O)[C@H]1O[C@@H](n2ccc(=O)[nH]c2=O)[C@H](O)[C@@H]1O (stereo in doubt; 3a) | System = Chitin synthase 1 (Candida albicans) (UniProt P23316) | ID50 = ____
2

Values from ChEMBL document CHEMBL1124064
